Source: patent US9914735B2

- measurement-target: FLT3 (Homo sapiens (Human))
- assay-info: FLT3 kinase test (Z'-LYTE)
- Assay type: biochemical
- measurement-conditions: Table 1; read-out: FLT3-inhibition IC50-value
pIC50: −log10 of the molar value.
Label yes (1) when pIC50 >= 5; otherwise no (0).

>  <smiles-string>
C[C@@H](Oc1nc(-c2cnn([C@H]3CCOC3)c2)cc2nn(C)cc12)[C@H]1CNC(=O)C1

>  <cat>
no (0)

$$$$
>  <smiles-string>
C[C@@H](Oc1nc(-c2ccc3c(c2)CN(C)CC3)cc2nn(C)cc12)[C@H]1CNC(=O)C1

>  <cat>
yes (1)

$$$$

query: For this compound, is measured pIC50 5 or higher? C[C@@H](Oc1nc(-c2cnn(C3CCCCC3)c2)cc2nn(C)cc12)[C@H]1CNC(=O)C1
result: yes (1)

query: For this compound, is measured pIC50 5 or higher? C[C@@H](Oc1nc(-c2ccc3c(cnn3C)c2)cc2nn(C)cc12)[C@H]1CNC(=O)C1
result: yes (1)

query: For this compound, is measured pIC50 5 or higher? Cc1c(-c2cc3nn(C)cc3c(O[C@H](C)[C@H]3CNC(=O)C3)n2)cnn1C
result: no (0)

----------
- measurement-target: Recombinant human Aurora B (amino acids 1-344) (Homo sapiens (Human), UniProt Q96GD4)
- Sequence (Q96GD4 whole entry, the tested form may be a part): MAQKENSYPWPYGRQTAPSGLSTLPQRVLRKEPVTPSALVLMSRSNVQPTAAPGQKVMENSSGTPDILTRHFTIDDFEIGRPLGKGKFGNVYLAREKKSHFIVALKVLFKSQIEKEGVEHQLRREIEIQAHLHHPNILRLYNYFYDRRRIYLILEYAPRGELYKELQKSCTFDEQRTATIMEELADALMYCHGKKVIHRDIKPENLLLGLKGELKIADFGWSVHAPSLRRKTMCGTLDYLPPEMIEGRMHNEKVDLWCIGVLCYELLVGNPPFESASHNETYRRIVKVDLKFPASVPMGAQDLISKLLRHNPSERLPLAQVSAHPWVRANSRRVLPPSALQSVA
- assay-info: Aurora B kinase test (ADP Glo luminescence)
- Format: biochemical
- measurement-conditions: read-out: IC50 in μM (AURB-Inhibition)
quantity-measured: IC50 (µM)
Answer in µM, number only, no unit symbol.

>  <smiles-string>
Cc1nc2ccc(-c3cc(O[C@H](C)[C@H]4CNC(=O)C4)c4cccnc4c3)cc2s1

>  <IC50, µM>
0.46

$$$$

query: Which IC50 value is on record for C[C@@H](Oc1cc(-c2ccc(CN3CCOCC3)cc2)cc2ncccc12)[C@H]1CNC(=O)C1 ?
result: 0.144

----------
- measurement-target: FLT3 (Homo sapiens (Human), UniProt P36888)
- Sequence (P36888 27-993): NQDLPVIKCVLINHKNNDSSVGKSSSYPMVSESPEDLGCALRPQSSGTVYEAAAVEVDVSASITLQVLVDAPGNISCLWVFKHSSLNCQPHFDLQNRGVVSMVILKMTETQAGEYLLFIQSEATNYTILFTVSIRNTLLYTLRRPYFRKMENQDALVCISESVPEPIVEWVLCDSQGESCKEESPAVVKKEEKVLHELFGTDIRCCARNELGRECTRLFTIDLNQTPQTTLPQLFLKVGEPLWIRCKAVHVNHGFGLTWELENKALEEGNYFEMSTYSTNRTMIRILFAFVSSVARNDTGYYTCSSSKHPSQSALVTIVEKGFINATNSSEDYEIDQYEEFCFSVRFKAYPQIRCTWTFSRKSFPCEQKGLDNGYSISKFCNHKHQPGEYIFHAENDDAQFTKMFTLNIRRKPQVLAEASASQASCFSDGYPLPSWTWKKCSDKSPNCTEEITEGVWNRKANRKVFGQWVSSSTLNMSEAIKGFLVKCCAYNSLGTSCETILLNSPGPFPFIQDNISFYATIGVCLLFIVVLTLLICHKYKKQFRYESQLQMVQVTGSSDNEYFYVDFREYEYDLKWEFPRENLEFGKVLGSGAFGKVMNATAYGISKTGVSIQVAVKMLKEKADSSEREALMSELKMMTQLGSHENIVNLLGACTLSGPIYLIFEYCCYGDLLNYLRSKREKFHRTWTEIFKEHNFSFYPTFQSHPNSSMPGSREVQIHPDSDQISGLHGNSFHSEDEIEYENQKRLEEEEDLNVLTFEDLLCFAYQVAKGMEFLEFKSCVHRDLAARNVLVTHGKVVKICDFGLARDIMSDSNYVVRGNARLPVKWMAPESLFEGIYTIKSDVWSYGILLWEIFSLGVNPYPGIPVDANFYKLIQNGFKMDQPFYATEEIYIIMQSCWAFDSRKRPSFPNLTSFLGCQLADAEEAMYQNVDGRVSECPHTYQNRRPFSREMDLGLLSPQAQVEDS
- assay-info: FLT3 kinase test (Z'-LYTE)
- Assay type: biochemical
- measurement-conditions: read-out: IC50 in μM (FLT3-Inhibition)
Range-based classes on measured IC50: low = under 0.9 µM, middle = from 0.9 µM up to 10 µM, high = 10 µM and over

query: For the record C[C@@H](Oc1nc(-c2ccc(OC(F)(F)F)c(F)c2)cc2ncccc12)[C@H]1CNC(=O)C1 [1 of WO 2011/092128] , report the class its IC50 corresponds to.
result: middle

query: For the record Cc1nc2cc(-c3cc(O[C@H](C)[C@H]4CNC(=O)C4)c4cccnc4c3)ccc2n1C [105 of WO 2013/014060] , report the class its IC50 corresponds to.
result: low

query: For the record CC(C)Oc1ccc(-c2cc(O[C@H](C)[C@H]3CNC(=O)C3)c3cn(C)nc3c2)cn1 [Example 27] , report the class its IC50 corresponds to.
result: high

query: For the record COc1ccc(-c2cc3nn(C)cc3c(O[C@H](C)[C@H]3CNC(=O)C3)n2)cn1 [Example 59] , report the class its IC50 corresponds to.
result: high

----------
- assay-info: Human liver microsomal stability test
- Format: in vitro ADME
- measurement-conditions: human liver microsomes; Qh = liver blood flow
// microsomal stability Cl [% Qh] lookup, one value per entry

>  <molecule>
C[C@@H](Oc1nc(-c2ccc3c(cnn3C)c2)cc2nn(C)cc12)[C@H]1CNC(=O)C1 [Example 62]

>  <quantity-measured>
microsomal stability Cl [% Qh]

>  <reported>
<23 % Qh

$$$$
>  <molecule>
C[C@@H](Oc1cc(-c2ccc3ncccc3c2)cc2ncccc12)[C@H]1CNC(=O)C1 [29 of WO 2013/014060]

>  <quantity-measured>
microsomal stability Cl [% Qh]

>  <reported>
44 % Qh

$$$$
>  <molecule>
C[C@@H](Oc1cc(-c2ccc3c(c2)CNCC3)cc2ncccc12)[C@H]1CNC(=O)C1 [101 of WO 2013/014060]

>  <quantity-measured>
microsomal stability Cl [% Qh]

>  <reported>
<23 % Qh

$$$$
>  <molecule>
COc1ccc(-c2cc3nn(C)cc3c(O[C@H](C)[C@H]3CNC(=O)C3)n2)cn1 [Example 59]

>  <quantity-measured>
microsomal stability Cl [% Qh]

>  <reported>
<23 % Qh

$$$$
>  <molecule>
C[C@@H](Oc1cc(-c2ccc3ncn(C)c3c2)cc2ncccc12)[C@H]1CNC(=O)C1 [81 of WO 2013/014060]

>  <quantity-measured>
microsomal stability Cl [% Qh]

>  <reported>
<23 % Qh

$$$$

query: Which microsomal stability Cl [% Qh] value is on record for Cc1nc2cc(-c3cc(O[C@H](C)[C@H]4CNC(=O)C4)c4cccnc4c3)ccc2n1C [105 of WO 2013/014060] ?
result: 64 % Qh

query: Which microsomal stability Cl [% Qh] value is on record for C[C@@H](Oc1cc(-c2ccc(CN3CCOCC3)cc2)cc2ncccc12)[C@H]1CNC(=O)C1 [43 of WO 2013/014060] ?
result: <23 % Qh
